- assayMethodText: reduction of polyQ htt aggregates in cells – imaging, exon1htt(103Q)mCFP cells, high-content imaging, primary screen (AID 483);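 note: compound exposure lasted 3 days before fixation; percent of the per-plate median nuclei count of sample wells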
- details: exon1htt(103Q)mCFP cell line, aggregate imaging, at 2 µM; measured here: cell count, toxicity
Answer each item with its documented nuclei count.
Give bare numbers, in %.

Some molecules with known nuclei count results, for comparison:
> print(dat)
                                   molecule  measurementname  number
1            O=c1[nH]c2ccccc2nc1NCCN1CCOCC1     nuclei count    98.9
2      O=C(Cc1cccs1)Nc1ccccc1NC(=O)Cc1cccs1     nuclei count    82.6
3  COc1ccccc1-c1cc(C(=O)Nc2cc(C)nn2-c2ccccc2)no1     nuclei count     111
4  COc1ccc(-c2nnc(SCc3nnc(-c4ccc(Cl)cc4)o3)n2-c2ccccc2)cc1     nuclei count     106
5      COCCCNS(=O)(=O)c1ccc2c(c1)CCN2C(C)=O     nuclei count     125

Take each entry in turn and give its nuclei count.
1. O=C(O)C1CC=CCC1C(=O)Nc1cccc(F)c1 (stereo not drawn)
2. CCCN1C(=O)c2cc(C(=O)O)ccc2C1O (stereo not drawn)
3. CN(Cc1ccccc1)C(=O)c1cc(-c2ccc(Br)cc2)on1
4. COc1ccc(OC)c(N(CC(=O)Nc2cccnc2)S(=O)(=O)c2ccc(OC)c(OC)c2)c1
5. O=C(CS(=O)(=O)c1cn(Cc2ccc(F)cc2)c2ccccc12)N1CCCCC1
6. CC1Cc2ccccc2N1C(=O)COC(=O)Cn1nnc(-c2ccccc2)n1 (stereo not drawn)

[112, 103, 107, 97, 116, 96.1]

Take each entry in turn and give its nuclei count.
1. CC(C)C(c1nnnn1C1CCCC1)N1CCN(C(=O)c2ccco2)CC1 (stereo not drawn)
2. O=C(c1ccccc1)N1CCN(CC2CC=CCC2)CC1 (stereo not drawn)
3. COCc1cc(C)nc(Nc2ccc(C)cc2C)c1C#N
4. Cc1ccc(-c2nc3cc(NC(=O)C(C)C)ccc3o2)cc1

[67.7, 91, 113, 98.3]

Take each entry in turn and give its nuclei count.
1. Clc1ccc(Cn2ncc3c(NCc4cccnc4)ncnc32)cc1
2. Cc1cccc(Cn2c(=O)n(Cc3ccco3)c(=O)c3ccccc32)c1
3. O=C1OCCC1Sc1ncnc2sc3c(c12)CCC3 (stereo not drawn)
4. CC(=O)c1cccc(NC(=O)CCNS(=O)(=O)c2cccc3nsnc23)c1
5. c1cc(C(c2nnnn2C2CCCC2)N2CCOCC2)ccn1 (stereo not drawn)

1. 113
2. 122
3. 84.1
4. 104
5. 78.3

Take each entry in turn and give its nuclei count.
1. COCCn1nnnc1C(c1cc2ccc(OC)cc2[nH]c1=O)N1CCc2ccccc2C1 (stereo not drawn)
2. Cc1ccc(S(=O)(=O)N2CCN(C(=O)c3cc(=O)[nH]c4ccccc34)CC2)c(C)c1
3. CC(=O)N(CCc1ccccc1C)Cc1cc2cc3c(cc2[nH]c1=O)OCO3

[86.9, 100, 86.1]

* * *

- assayMethodText: blockers of RIG-like receptor reporter activation – cell-based, Sendai virus stimulus, luciferase, 10K MLSCN set, TLR/RLR signaling modifier project, primary screen (AID 602276);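 note: firefly luciferase from ISG56 promoter only with Renilla not read in this screen; 0% = Sendai virus plus DMSO and 100% = medium plus DMSO without virus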
- details: HEK293 RL24 IRF3 luciferase reporter, at 10 µM, stronger effect = higher value
measurementName: inhibition (%)
Numbers only, in %.

Some compounds with known inhibition results, for comparison:
> print(dat)
                                   compound  u  number
1  CCOC(=O)c1ccc(NC(=O)CC2SC(=NC)N(C)C2=O)cc1 (centres undefined)  %    13.7
2  COc1ccc(CN2CC(C(=O)NCCCOC(C)C)CC2=O)cc1 (centres undefined)  %     -10
3  CCN(CC)C(=O)CSc1nc2ccccc2c(=O)n1CCC(=O)NCc1ccc(F)cc1  %   -10.2
4  CC(C)(C)c1ccc(-c2nnc(SCCC#N)n2C2CCCC2)cc1  %   -5.13
5  CSc1ccccc1NC(=O)CN(c1ccccc1)S(=O)(=O)N(C)C  %    15.6
6                C#CCSc1nc(-c2cccs2)ccc1C#N  %   -10.7

Take each entry in turn and give its inhibition.
1. O=C(CSc1nnc(-c2ccccc2)o1)N1CCc2ccccc2C1
2. CCOC(=O)C(C)C1(O)c2ccccc2-c2ncccc21 (centres undefined)
3. CCN1CCN(CCCNC(=O)c2cc3sccc3n2CC)CC1

7.64
4.67
-14.9

Take each entry in turn and give its inhibition.
1. COCCNC(=O)CN1CCN(Cc2cccc(Cl)c2)C1=O
2. COc1ccc(NC(=O)CSc2nnc(-c3ccncc3)n2CC2CCCO2)c(OC)c1 (centres undefined)

6.1
7.58

Take each entry in turn and give its inhibition.
1. Cc1ccc2nc3c(cc2c1)CN(Cc1ccco1)C(=NCC1CCCO1)S3 (centres undefined)
2. C(#Cc1ccccc1)Cn1nnc2ccccc21

1: 13.9; 2: -41.6

Take each entry in turn and give its inhibition.
1. N#Cc1ccc(CSc2nnc(-c3cnccn3)o2)cc1
2. C=C(C)Cn1c(CCCNC(=O)C(C)(C)C)nc2ccccc21
3. COc1ccc(CSCCN)cc1Cl
4. CCOC(=O)CSc1nc2ccccc2n1CC(=O)N1CCN(c2ccccc2)CC1
5. COc1ccc(S(=O)(=O)NCc2ccc(C(=O)O)cc2)cc1
6. CCN1C(=O)/C(=C2\C=Cc3ccccc3N2CC)OC1=S
7. COC(=O)c1oc2ccc(Br)cc2c1NC(C)=O

1. 2.28
2. 6.04
3. -7.54
4. -4.03
5. 9.81
6. 4
7. 16.9

Take each entry in turn and give its inhibition.
1. Cc1c(C)n(C(=O)CN2CCN(c3ccccn3)CC2)c2ccccc12
2. CCOc1ccc2[nH]c(=O)c(CN(CCOC)C(=O)N3CCOCC3)cc2c1

8.12
3.22

Take each entry in turn and give its inhibition.
1. COc1cc(C)c(Br)cc1S(=O)(=O)N1CCOCC1
2. CCOC(=O)c1cnc(-n2nc(C)cc2C)nc1Nc1ccc(N(C)C)cc1

1. 11.9
2. 4.06
